tested-on: mitochondrial benzodiazepine receptor (MBR) (Rattus norvegicus, UniProt P16257)
Construct: from tissue; host or cells: kidney of male Wistar rats (crude membrane preparation)
test-summary: Binding assay of mitochondrial benzodiazepine receptor (MBR), [3H]4'-chlorodiazepam (Ro5-4864), rat kidney membrane-preparation
run-conditions: rat kidney membranes, [3H]4'-chlorodiazepam 0.5 nM, 0° C. for 150 minutes
pIC50: −log10 of the molar value.
result-type: pIC50

[[record]]
compound = "C[C@H]1CCCN(C(=O)[C@@H]2Cc3ccccc3N2c2ccc(=S)n(C)n2)C1"
reported = 8.15

[[record]]
compound = "C[C@@H]1C[C@H](C)CN(C(=O)[C@@H]2Cc3ccccc3N2c2ccc(=O)n(C)n2)C1"
reported = 8.62

[[record]]
compound = "COc1ccc2c(c1)CC(C(=O)N1CCCC(C)C1)N2c1ccc(=O)n(C)n1 (racemic)"
reported = 7.47

[[record]]
compound = "Cc1ccc(N2c3ccccc3CC2C(=O)N2C[C@H](C)C[C@H](C)C2)nc1 (relative stereo)"
reported = 8.74

[[record]]
compound = "CC1CCCCN(C(=O)[C@@H]2Cc3ccccc3N2c2ccc(=O)n(C)n2)C1 (some centres unmarked)"
reported = 8.27

[[record]]
compound = "C[C@@H]1C[C@H](C)CN(C(=O)[C@H]2Cc3ccccc3N2c2ncccn2)C1"
reported = 7.84

[[record]]
compound = "C[C@H]1CCCN(C(=O)[C@@H]2Cc3ccccc3N2c2ccc(=O)n(C3CCCC3)n2)C1"
reported = 8.57

[[record]]
compound = "CCn1nc(N2c3ccccc3C[C@H]2C(=O)N2CCC[C@H](C)C2)ccc1=O"
reported = 8.25

[[record]]
compound = "COc1ccc2c(c1)N(c1ccc(=O)n(C)n1)C(C(=O)N1CCCC(C)C1)C2 (racemic)"
reported = 7.87

[[record]]
compound = "C[C@H]1CCCN(C(=O)[C@@H]2Cc3ccccc3N2c2ccc(=O)n(CCF)n2)C1"
reported = 8.41

[[record]]
compound = "C[C@H]1CCCN(C(=O)[C@@H]2Cc3ccccc3N2c2ccc(=O)n(CC3CCC3)n2)C1"
reported = 8.88

[[record]]
compound = "CC1CCCN(C(=O)[C@H]2[C@@H](O)c3ccccc3N2c2ccc(=O)n(C)n2)C1 (relative stereo)"
reported = 7.21

[[record]]
compound = "C[C@@H]1C[C@H](C)CN(C(=O)[C@@H]2Cc3ccccc3N2c2ncccc2N)C1"
reported = 7.26

[[record]]
compound = "C[C@H]1CCCN(C(=O)[C@@H]2Cc3ccccc3N2c2ccc(Cl)nn2)C1"
reported = 8.92

[[record]]
compound = "C[C@H]1CCCN(C(=O)[C@@H]2Cc3ccccc3N2c2nsc3ccccc23)C1"
reported = 8.24

[[record]]
compound = "C=Cc1ccc2c(c1)C[C@@H](C(=O)N1CCC[C@H](C)C1)N2c1cccnn1"
reported = 7.35

[[record]]
compound = "C[C@H]1CCCN(C(=O)C2Cc3c(F)cccc3N2c2ccc(=O)n(C)n2)C1 (single isomer, unassigned) [Example 155a]"
reported = 8.36

[[record]]
compound = "C[C@H]1CCCN(C(=O)[C@@H]2Cc3ccccc3N2c2ccc(=O)n(CC3CCCCC3)n2)C1"
reported = 8.50

[[record]]
compound = "Cn1nc(N2c3cccc(F)c3CC2C(=O)N2CCCCCC2)ccc1=O (centres unmarked)"
reported = 8.56

[[record]]
compound = "C[C@H]1CCCN(C(=O)C2Cc3c(F)cccc3N2c2ccc(=O)n(C)n2)C1 (single isomer, unassigned) [Example 155b]"
reported = 8.06

[[record]]
compound = "C[C@@H]1C[C@H](C)CN(C(=O)[C@@H]2Cc3ccccc3N2c2cccnn2)C1"
reported = 8.69

[[record]]
compound = "CCC1CCCCN(C(=O)[C@@H]2Cc3ccccc3N2c2ccc(=O)n(C)n2)C1 (some centres unmarked)"
reported = 8.44

[[record]]
compound = "O=C(C1Cc2ccccc2N1c1ncccn1)N1CCCC(CO)C1 (racemic)"
reported = 7.03

[[record]]
compound = "CCCC1CCCN(C(=O)[C@@H]2Cc3ccccc3N2c2ccc(=O)n(C)n2)C1 (some centres unmarked)"
reported = 8.42

[[record]]
compound = "C[C@H]1CCCN(C(=O)[C@@H]2Cc3ccccc3N2c2ncccn2)C1"
reported = 9.02

[[record]]
compound = "C[C@H]1CCCN(C(=O)[C@@H]2Cc3ccccc3N2c2ccccn2)C1"
reported = 9.18

[[record]]
compound = "C[C@@H]1CCCN(C(=O)[C@@H]2Cc3ccccc3N2c2nc3ccccc3o2)C1"
reported = 8.93

[[record]]
compound = "CCc1cnc(N2c3ccccc3CC2C(=O)N2C[C@H](C)C[C@H](C)C2)nc1 (relative stereo)"
reported = 8.69

[[record]]
compound = "CC1CCCCN1C(=O)[C@@H]1Cc2ccccc2N1c1ccc(=O)n(C)n1 (some centres unmarked)"
reported = 7.51

[[record]]
compound = "C[C@H]1CCCN(C(=O)[C@@H]2Cc3ccccc3N2c2ccc(=O)n(C)n2)C1"
reported = 8.22

[[record]]
compound = "C[C@@H]1C[C@H](C)CN(C(=O)C2Cc3ccccc3N2c2nc3ccccc3o2)C1 (relative stereo)"
reported = 8.64

[[record]]
compound = "C[C@H]1CCCN(C(=O)[C@@H]2Cc3ccccc3N2c2nccc3ccccc23)C1"
reported = 8.86


* * *

result-type: melting point

[[record]]
compound = "O=C(C1Cc2ccccc2N1c1ncccn1)N1CCCCC1 (stereo not shown) [Example 7]"
result_type = "melting point"
reported = "149 to 151 °C"

[[record]]
compound = "CCc1cnc(N2c3ccccc3CC2C(=O)N2C[C@H](C)C[C@H](C)C2)nc1 (relative stereo) [Example 8]"
result_type = "melting point"
reported = "147 to 149 °C"

[[record]]
compound = "C[C@@H]1C[C@H](C)CN(C(=O)[C@@H]2Cc3ccccc3N2c2cnccn2)C1 [Example 61]"
result_type = "melting point"
reported = "162 to 164 °C"

[[record]]
compound = "C[C@H]1CCCN(C(=O)[C@@H]2Cc3cc(Br)ccc3N2c2cccnn2)C1 [Example 90]"
result_type = "melting point"
reported = "161 to 163 °C"

[[record]]
compound = "C[C@@H]1C[C@H](C)CN(C(=O)[C@@H]2Cc3ccccc3N2c2ccc(=O)n(C)n2)C1 [Example 41]"
result_type = "melting point"
reported = "200 to 204 °C"

[[record]]
compound = "C[C@H]1CCCN(C(=O)[C@@H]2Cc3ccccc3N2c2nc3ccccc3s2)C1 [Example 14]"
result_type = "melting point"
reported = "165 to 166 °C"

[[record]]
compound = "C[C@@H]1C[C@H](C)CN(C(=O)C2Cc3ccccc3N2c2nc3ccccc3o2)C1 (relative stereo) [Example 5]"
result_type = "melting point"
reported = "199 to 201 °C"

[[record]]
compound = "COc1ccc2c(c1)CC(C(=O)N1CCC[C@H](C)C1)N2c1ccc(Cl)nn1 (stereo partly shown) [Example 69]"
result_type = "melting point"
reported = "136 to 139 °C"

[[record]]
compound = "C[C@H]1CCCN(C(=O)[C@@H]2Cc3ccccc3N2c2nsc3ccccc23)C1 [Example 28]"
result_type = "melting point"
reported = "176 to 178 °C"

[[record]]
compound = "C[C@@H]1CCCN(C(=O)[C@@H]2Cc3ccccc3N2c2ncccn2)C1 [Example 22]"
result_type = "melting point"
reported = "151 to 153 °C"

[[record]]
compound = "C[C@H]1CCCN(C(=O)[C@@H]2Cc3cc(Cl)ccc3N2c2cccnn2)C1 [Example 91]"
result_type = "melting point"
reported = "175 to 177 °C"

[[record]]
compound = "C[C@H]1CCCN(C(=O)C2Cc3cc(F)ccc3N2c2ccc(Cl)nn2)C1 (stereo partly shown) [Example 67]"
result_type = "melting point"
reported = "164 to 168 °C"

[[record]]
compound = "O=C(C1Cc2ccccc2N1c1ncccn1)N1CCCC(C(F)(F)F)C1 (racemic) [Example 49]"
result_type = "melting point"
reported = "159 to 163 °C"

[[record]]
compound = "C[C@H]1CCCN(C(=O)[C@@H]2Cc3ccccc3N2c2nccc3ccccc23)C1 [Example 12]"
result_type = "melting point"
reported = "134 to 136 °C"

[[record]]
compound = "C[C@H]1CCCN(C(=O)[C@@H]2Cc3ccccc3N2c2ccc(=O)n(C)n2)C1 [Example 40]"
result_type = "melting point"
reported = "219 to 221 °C"

[[record]]
compound = "C[C@@H]1C[C@H](C)CN(C(=O)[C@@H]2Cc3ccccc3N2c2cncc(Cl)n2)C1 [Example 21]"
result_type = "melting point"
reported = "174 to 175 °C"


* * *

tested-on: mitochondrial benzodiazepine receptor (MBR) (Rattus norvegicus)
Each item that follows carries a reported IC50.
result-type: IC50 (nM)

[[record]]
compound = "CC1CC(C)CN(C(=O)C2Cc3ccccc3N2c2ccncn2)C1 (racemic) [Example 58]"
result_type = "IC50"
reported = 4.31

[[record]]
compound = "COc1ccc2c(c1)CC(C(=O)N1CCC[C@H](C)C1)N2c1ccc(Cl)nn1 (stereo partly shown) [Example 69]"
result_type = "IC50"
reported = 4.51

[[record]]
compound = "Cn1nc(N2c3ccccc3C[C@H]2C(=O)N2CCCCCCC2)ccc1=O [Example 119]"
result_type = "IC50"
reported = 3.98

[[record]]
compound = "C[C@@H]1CCCN(C(=O)[C@@H]2Cc3ccccc3N2c2ccc(=O)n(C)n2)C1 [Example 122]"
result_type = "IC50"
reported = 26.8

